Data credit: ChEMBL document CHEMBL5724914

conditions: human gut metagenome, 24 h, 2 µM; further: call rule not given here
value_type: Bacterial Biotransformation

compound	value_type	endpoint_result
OCCN1CCN(CCCN2c3ccccc3Sc3ccc(C(F)(F)F)cc32)CC1 [FLUPHENAZINE]	Bacterial Biotransformation	Compound metabolized
CCCC(=O)Nc1ccc(OCC(O)CNC(C)C)c(C(C)=O)c1 (stereo not drawn) [ACEBUTOLOL]	Bacterial Biotransformation	Compound NOT metabolized
CN(C)CCC=C1c2ccccc2C=Cc2ccccc21 [CYCLOBENZAPRINE]	Bacterial Biotransformation	Compound metabolized
COc1c(C)c2c(c(O)c1C/C=C(\C)CCC(=O)OCCN1CCOCC1)C(=O)OC2 [MYCOPHENOLATE MOFETIL]	Bacterial Biotransformation	Compound NOT metabolized
CC(C)c1c(C(=O)Nc2ccccc2)c(-c2ccccc2)c(-c2ccc(F)cc2)n1CC[C@@H](O)C[C@@H](O)CC(=O)O [ATORVASTATIN]	Bacterial Biotransformation	Compound metabolized
CCCCC(=O)N(Cc1ccc(-c2ccccc2-c2nnn[nH]2)cc1)[C@H](C(=O)O)C(C)C	Bacterial Biotransformation	Compound metabolized

GET /values?readout=Bacterial Biotransformation&item= COc1cc2nc(N(C)CCCNC(=O)C3CCCO3)nc(N)c2cc1OC (stereo not drawn) [ALFUZOSIN]
Compound NOT metabolized

Please report the recorded Bacterial Biotransformation for COc1ccc2[nH]c([S+]([O-])Cc3ncc(C)c(OC)c3C)nc2n1 (stereo not drawn) [TENATOPRAZOLE] .
Compound NOT metabolized

---

settings: human gut metagenome, 24 h, 2 µM
value_type: Bacterial Biotransformation

compound	endpoint_result
CN1CCc2c(c3ccccc3n2Cc2ccccc2)C1.CN1CCc2c(c3ccccc3n2Cc2ccccc2)C1.O=S(=O)(O)c1cccc2c(S(=O)(=O)O)cccc12	Compound metabolized
Cc1nc2n(c(=O)c1CCN1CCC(c3noc4cc(F)ccc34)CC1)CCCC2O (centres undefined)	Compound metabolized
COc1c(C)c2c(c(O)c1C/C=C(\C)CCC(=O)OCCN1CCOCC1)C(=O)OC2 [MYCOPHENOLATE MOFETIL]	Compound metabolized

---

settings: human gut metagenome, 24 h, 2 µM
value_type: Bacterial Biotransformation

compound	value_type	endpoint_result
CCCCCOC(=O)Nc1nc(=O)n([C@@H]2O[C@H](C)[C@@H](O)[C@H]2O)cc1F	Bacterial Biotransformation	Compound metabolized
CC(=O)CC(c1ccccc1)c1c(O)c2ccccc2oc1=O (stereo not drawn)	Bacterial Biotransformation	Compound metabolized
CCCCC1=NC2(CCCC2)C(=O)N1Cc1ccc(-c2ccccc2-c2nnn[nH]2)cc1	Bacterial Biotransformation	Compound metabolized
COc1c(C)c2c(c(O)c1C/C=C(\C)CCC(=O)OCCN1CCOCC1)C(=O)OC2 [MYCOPHENOLATE MOFETIL]	Bacterial Biotransformation	Compound metabolized
CCOC(=O)[C@H](CCc1ccccc1)N[C@@H](C)C(=O)N1[C@H](C(=O)O)C[C@@H]2CCC[C@@H]21	Bacterial Biotransformation	Compound metabolized
Cc1ccc(S(=O)(=O)NC(=O)NN2CC3CCCC3C2)cc1 (stereo not drawn) [GLICLAZIDE]	Bacterial Biotransformation	Compound NOT metabolized

Request the reported Bacterial Biotransformation associated with CC(CN1c2ccccc2Sc2ccccc21)N(C)C (stereo not drawn)
Compound NOT metabolized

Given CS(=O)(=O)O.OC(CCN1CCCCC1)(c1ccccc1)c1ccccc1 [PRIDINOL METHANESULFONATE] , state its recorded Bacterial Biotransformation.
Compound NOT metabolized

Fill blank: measured Bacterial Biotransformation of the compound CC(=O)O[C@]1(C(C)=O)CC[C@H]2[C@@H]3C=C(Cl)C4=CC(=O)[C@@H]5C[C@@H]5[C@]4(C)[C@H]3CC[C@@]21C [CYPROTERONE ACETATE] is ____.
Compound metabolized
